- Test system: TRZAWR (Wheat, Winter, cv Riband)
- method: Preemergence herbicidal evaluation
- Format: in vivo, Triticum aestivum
- condition_set: Rate 0.1250 kg/ha; rated 4-5 weeks after treatment
result_type: Preemergence herbicidal rating TRZAWR

>>> value_reported("Cn1c(C(F)(F)F)cc(=O)n(-c2ccc3snc(C4OCC(CCl)O4)c3c2)c1=O (stereo not drawn)")
9.0
>>> value_reported("Cc1ccc(-c2nsc3ccc(-n4c(=O)cc(C(F)(F)F)n(C)c4=O)cc23)nc1")
2.0
>>> value_reported("Cn1c(C(F)(F)F)cc(=O)n(-c2ccc3snc(C4=NCCO4)c3c2)c1=O")
2.0
>>> value_reported("Cn1c(C(F)(F)F)cc(=O)n(-c2ccc3snc(-c4sccc4CBr)c3c2)c1=O")
0.0
>>> value_reported("Cn1c(C(F)(F)F)cc(=O)n(-c2cc3c(C4OCCCO4)nsc3cc2F)c1=O")
9.0
>>> value_reported("C[C@@H]1C[C@H](C)OC(c2nsc3cc(F)c(-n4c(=O)cc(C(F)(F)F)n(C)c4=O)cc23)O1 (stereo partly drawn)")
9.0

----------
- System: GLXMAW (Soybean, Williams)
- method: Postemergence herbicidal evaluation
- Assay type: in vivo, Glycine max, (L.) Merr. cv Williams
- condition_set: rate 0.0620 kg/ha
- Procedure: In the tests, seedling plants are grown in jiffy flats for about two weeks. […] After spraying, the plants are placed on greenhouse benches and are cared for in accordance with conventional greenhouse procedures. From four to five weeks after treatment, the seedling plants are examined and rated according to the rating system set forth below. Where more than one test is involved for a given compound, the data are averaged. Results of herbicide evaluation are expressed on a rating scale (0-9). […]
Readings of Postemergence herbicidal rating, GLXMAW for the listed compounds
result_type: Postemergence herbicidal rating, GLXMAW

>>> value_reported("C[C@@H]1O[C@@H]1c1nsc2ccc(-n3c(=O)cc(C(F)(F)F)n(C)c3=O)cc12 [Compound 13]")
7.0
>>> value_reported("Cc1ccc(-c2nsc3ccc(N4C(=O)C5=C(CCCC5)C4=O)cc23)s1 [Compound 20]")
5.5
>>> value_reported("CCc1cc(-c2nsc3ccc(-n4c(=O)cc(C(F)(F)F)n(C)c4=O)cc23)c(CC)s1 [Compound 8]")
5.5
>>> value_reported("Cn1ccnc1-c1nsc2ccc(-n3c(=O)cc(C(F)(F)F)n(C)c3=O)cc12 [Compound 5]")
6.0
>>> value_reported("Cn1c(C(F)(F)F)cc(=O)n(-c2ccc3snc(C4OCCCO4)c3c2)c1=O [Compound 28]")
9.0
>>> value_reported("Cn1c(C(F)(F)F)cc(=O)n(-c2ccc3c(c2)C(c2cccc[n+]2[O-])=NS3(=O)=O)c1=O [Compound 15]")
5.0
>>> value_reported("Cn1c(C(F)(F)F)cc(=O)n(-c2ccc3snc(-c4cccs4)c3c2)c1=O [Compound 3]")
6.5
>>> value_reported("C#CCOC(=O)COc1ccsc1-c1nsc2ccc(-n3c(=O)cc(C(F)(F)F)n(C)c3=O)cc12 [Compound 39]")
5.0

----------
- System: TRZAWR (Wheat, Winter, cv Riband)
- method: Postemergence herbicidal evaluation
- Type: in vivo, Triticum aestivum
- condition_set: rate 0.0620 kg/ha
Postemergence herbicidal rating, TRZAWR under 5 gets TRUE, anything at or over 5 gets FALSE.

>>> discrete_label("CC(=O)N1CCSC1c1nsc2ccc(-n3c(=O)cc(C(F)(F)F)n(C)c3=O)cc12 (centres unmarked)")
"TRUE"
>>> discrete_label("Cn1c(C(F)(F)F)cc(=O)n(-c2ccc3snc(-c4ccccn4)c3c2)c1=O")
"TRUE"
>>> discrete_label("C[C@H]1O[C@@H]1c1nsc2ccc(-n3c(=O)cc(C(F)(F)F)n(C)c3=O)cc12")
"FALSE"
>>> discrete_label("Cn1c(C(F)(F)F)cc(=O)n(-c2ccc3snc(C4OCCCS4)c3c2)c1=O (centres unmarked)")
"FALSE"
>>> discrete_label("C[C@@H]1O[C@@H]1c1nsc2ccc(-n3c(=O)cc(C(F)(F)F)n(C)c3=O)cc12")
"TRUE"
>>> discrete_label("CC1CCOC(c2nsc3ccc(-n4c(=O)cc(C(F)(F)F)n(C)c4=O)cc23)O1 (centres unmarked)")
"FALSE"
>>> discrete_label("COC(=O)C(C)Oc1ccsc1-c1nsc2ccc(-n3c(=O)cc(C(F)(F)F)n(C)c3=O)cc12 (centres unmarked)")
"TRUE"

----------
compounds and their reported ZEAMX preemergence herbicidal rating
- Tested on: ZEAMX (Corn, Field)
- method: Preemergence herbicidal evaluation
- Type: in vivo, Zea mays, L.
- condition_set: Rate 0.1250 kg/ha; preemergence; rated 4-5 weeks after treatment
result_type: ZEAMX preemergence herbicidal rating

>>> value_reported("Cn1c(C(F)(F)F)cc(=O)n(-c2ccc3snc(C4SCCS4)c3c2)c1=O [Compound 24]")
1.0
>>> value_reported("Cc1ccc(-c2nsc3ccc(-n4c(=O)cc(C(F)(F)F)n(C)c4=O)cc23)s1 [Compound 21]")
3.5
>>> value_reported("Cc1csc(-c2nsc3ccc(-n4c(=O)cc(C(F)(F)F)n(C)c4=O)cc23)n1 [Compound 7]")
4.0
>>> value_reported("Cc1cccnc1-c1nsc2ccc(-n3c(=O)cc(C(F)(F)F)n(C)c3=O)cc12 [Compound 19]")
7.0
>>> value_reported("Cn1ccnc1-c1nsc2ccc(-n3c(=O)cc(C(F)(F)F)n(C)c3=O)cc12 [Compound 5]")
6.5
>>> value_reported("Cn1c(C(F)(F)F)cc(=O)n(-c2ccc3snc(C(SCCO)SCCO)c3c2)c1=O [Compound 33]")
2.0
>>> value_reported("Cn1c(C(F)(F)F)cc(=O)n(-c2ccc3snc(C4SCCN4C(=O)c4ccccc4)c3c2)c1=O (centres unmarked) [Compound 30]")
3.5
>>> value_reported("Cc1nnc(-c2nsc3ccc(-n4c(=O)cc(C(F)(F)F)n(C)c4=O)cc23)s1 [Compound 17]")
7.0

----------
- Tested on: ABUTH (Abutilon theophrasti)
- method: Preemergence herbicidal evaluation
- Assay type: in vivo, Medic.
- condition_set: Rate 0.0620 kg/ha; rated 4-5 weeks after treatment
- Source text: Results of herbicide evaluation are expressed on a rating scale (0-9). The scale is based upon a visual observation of plant stand, vigor, malformation, size, chlorosis and overall plant appearance as compared with a control. […]
The reader will find reported Preemergence herbicidal rating ABUTH values listed item by item below.
result_type: Preemergence herbicidal rating ABUTH

>>> value_reported("Cn1c(C(F)(F)F)cc(=O)n(-c2ccc3snc(C4OCC(CCl)O4)c3c2)c1=O (stereo not shown)")
9.0
>>> value_reported("Cn1c(C(F)(F)F)cc(=O)n(-c2ccc3snc(-c4nccs4)c3c2)c1=O")
5.0
>>> value_reported("C[C@@H]1OC(c2nsc3cc(F)c(-n4c(=O)cc(C(F)(F)F)n(C)c4=O)cc23)O[C@@H]1C (stereo partly shown)")
9.0
>>> value_reported("C[C@H]1OC(c2nsc3ccc(-n4c(=O)cc(C(F)(F)F)n(C)c4=O)cc23)O[C@@H]1C")
9.0

----------
Measured Postemergence herbicidal rating, CHEAL, listed per entry.
- Tested on: CHEAL (Chenopodium album)
- method: Postemergence herbicidal evaluation
- Assay type: in vivo, L.
- condition_set: rate 0.1250 kg/ha
- Procedure: In the tests, seedling plants are grown in jiffy flats for about two weeks. […] After spraying, the plants are placed on greenhouse benches and are cared for in accordance with conventional greenhouse procedures. From four to five weeks after treatment, the seedling plants are examined and rated according to the rating system set forth below. Where more than one test is involved for a given compound, the data are averaged. Results of herbicide evaluation are expressed on a rating scale (0-9). […]
result_type: Postemergence herbicidal rating, CHEAL

>>> value_reported("Cc1cccnc1-c1nsc2cc(F)c(N3C(=O)C4=C(CCCC4)C3=O)cc12")
9.0
>>> value_reported("Cn1c(C(F)(F)F)cc(=O)n(-c2ccc3snc(-c4ccccn4)c3c2)c1=O")
9.0
>>> value_reported("Cc1ccc(-c2nsc3ccc(-n4c(=O)cc(C(F)(F)F)n(C)c4=O)cc23)nc1")
9.0
>>> value_reported("Cc1ccc(-c2nsc3ccc(N4C(=O)C5=C(CCCC5)C4=O)cc23)s1")
5.0
>>> value_reported("COC(=O)C(C)Oc1ccsc1-c1nsc2ccc(-n3c(=O)cc(C(F)(F)F)n(C)c3=O)cc12 (centres unmarked)")
6.0

----------
Reported Preemergence herbicidal rating GLXMAW values follow for various compounds
- System: GLXMAW (Soybean, Williams)
- method: Preemergence herbicidal evaluation
- Assay type: in vivo, Glycine max, (L.) Merr. cv Williams
- condition_set: Rate 0.1250 kg/ha; rated 4-5 weeks after treatment
result_type: Preemergence herbicidal rating GLXMAW

>>> value_reported("Cn1c(C(F)(F)F)cc(=O)n(-c2ccc3snc(-c4sccc4CBr)c3c2)c1=O")
0.5
>>> value_reported("C[C@H]1OC(c2nsc3ccc(-n4c(=O)cc(C(F)(F)F)n(C)c4=O)cc23)O[C@@H]1C")
9.0
>>> value_reported("C[C@@H]1C[C@H](C)OC(c2nsc3ccc(-n4c(=O)cc(C(F)(F)F)n(C)c4=O)cc23)O1 (stereo partly shown)")
9.0
>>> value_reported("Cn1c(C(F)(F)F)cc(=O)n(-c2ccc3snc(C4OCC(CCl)O4)c3c2)c1=O (stereo not shown)")
9.0
>>> value_reported("COCC1COC(c2nsc3ccc(-n4c(=O)cc(C(F)(F)F)n(C)c4=O)cc23)O1 (stereo not shown)")
9.0
>>> value_reported("CC(C)C1COC(c2nsc3ccc(-n4c(=O)cc(C(F)(F)F)n(C)c4=O)cc23)=N1 (stereo not shown)")
1.0
>>> value_reported("Cn1c(C(F)(F)F)cc(=O)n(-c2cc3c(C4OCCCO4)nsc3cc2F)c1=O")
9.0
